B1: PTPN9 (parent)
chain: ILFSLPPALDWDSVHVPGPHAMTI

# Variants of: B1
# test: protein stability index of a GFP-peptide fusion (GPS, HEK-293T) (PSI 1-6); higher = more stable;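 further: lentivirally expressed fusions sorted by FACS into six bins by GFP to DsRed ratio, PSI derived from sequencing read proportions per bin multiplied by bin number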
# condition-summary: c terminus: a fixed tail appended
Answer each item with its documented protein stability index.
Answers are plain numbers.

These solved cases illustrate the format of a correct answer.
mutation-string	protein stability index
P17Q	2.94
A21P	2.84
W11I	3.5
W11Y	3.05
V16W	2.95

# batch: return protein stability index for each of the 6 variants below
1. H15A
2. S13T
3. P19D
4. W11N
5. I1M
6. T23E

3.31
2.42
2.1
2.26
1.7
2.33
